Protocol Notes: Metabolic stability in rat liver microsomes assessed as half life incubated for 60 mins by LC-MS/MS analysis
Assay type: ADME, Microsome
Measured Quantity: half-life (h)

N#Cc1ccc2[nH]cc(CCCCN3CCN(c4ccc(-n5ccc6ncccc6c5=O)cc4)CC3)c2c1: 1.89

(P) N#Cc1ccc2[nH]cc(CCCCN3CCN(c4ccc5oc(C(N)=O)cc5c4)CC3)c2c1
(Q) N#Cc1ccc2[nH]cc(CCCN3CCN(c4ccc(-n5ccc6ncccc6c5=O)cc4)CC3)c2c1
(R) N#Cc1ccc2[nH]cc(CCCCN3CCN(c4ccc(-n5ccc6occc6c5=O)cc4)CC3)c2c1
Prompt line: Could you please order the items by half-life, going from the lowest number to the highest? Sort and list the labels as requested.
Response line: Q, P, R

* * *

Protocol Notes: Clearance in Sprague-Dawley rat at 2 mg/kg, iv measured by LC-MS/MS analysis
Assay type: ADME, organism-based
Condition Description: in vivo
Measured Quantity: clearance (mL/min/kg)

(P) N#Cc1ccc2[nH]cc(CCCCN3CCN(c4ccc(-n5ccc6occc6c5=O)cc4)CC3)c2c1
(Q) N#Cc1ccc2[nH]cc(CCCCN3CCN(c4ccc(-n5ccc6ncccc6c5=O)cc4)CC3)c2c1
Prompt line: Pick the one with the larger clearance: P vs Q Answer format: the label of the selected item.
Response line: P

* * *

Protocol Notes: Cmax in Sprague-Dawley rat at 5 mg/kg, po measured by LC-MS/MS analysis
Type: ADME, organism-based
Design: route oral, dose 5 mg/kg
Condition Description: in vivo
Measured Quantity: Cmax (ng/mL)

(P) N#Cc1ccc2[nH]cc(CCCCN3CCN(c4ccc(-n5ccc6occc6c5=O)cc4)CC3)c2c1
(Q) N#Cc1ccc2[nH]cc(CCCCN3CCN(c4ccc(-n5ccc6ncccc6c5=O)cc4)CC3)c2c1
Prompt line: Could you kindly indicate whether P or Q has the higher Cmax value? Refer to your chosen entry by its label in the reply.
Response line: Q

* * *

Protocol Notes: AUC (0 to t) in Sprague-Dawley rat at 5 mg/kg, po measured by LC-MS/MS analysis
Type: ADME, organism-based
Design: dose 5 mg/kg
Condition Description: in vivo
Measured Quantity: AUC(0-t) (ng·h/mL)

(A) N#Cc1ccc2[nH]cc(CCCCN3CCN(c4ccc(-n5ccc6ncccc6c5=O)cc4)CC3)c2c1
(B) N#Cc1ccc2[nH]cc(CCCCN3CCN(c4ccc(-n5ccc6occc6c5=O)cc4)CC3)c2c1
Prompt line: Higher AUC(0-t) between A and B ? Refer to your chosen entry by its label in the reply.
Response line: A
(A: 189 ng·h/mL, B: 77 ng·h/mL)

* * *

Protocol Notes: Volume of distribution in steady state in Sprague-Dawley rat at 2 mg/kg, iv measured by LC-MS/MS analysis
Assay type: ADME, organism-based
Condition Description: in vivo, read-out: Vdss
Measured Quantity: Vd (L/kg)

N#Cc1ccc2[nH]cc(CCCCN3CCN(c4ccc(-n5ccc6ncccc6c5=O)cc4)CC3)c2c1: 2.47
N#Cc1ccc2[nH]cc(CCCCN3CCN(c4ccc(-n5ccc6occc6c5=O)cc4)CC3)c2c1: 3.21

* * *

Measurement Target: Sodium-dependent serotonin transporter (Rattus norvegicus)
Sequence (P31652 whole entry): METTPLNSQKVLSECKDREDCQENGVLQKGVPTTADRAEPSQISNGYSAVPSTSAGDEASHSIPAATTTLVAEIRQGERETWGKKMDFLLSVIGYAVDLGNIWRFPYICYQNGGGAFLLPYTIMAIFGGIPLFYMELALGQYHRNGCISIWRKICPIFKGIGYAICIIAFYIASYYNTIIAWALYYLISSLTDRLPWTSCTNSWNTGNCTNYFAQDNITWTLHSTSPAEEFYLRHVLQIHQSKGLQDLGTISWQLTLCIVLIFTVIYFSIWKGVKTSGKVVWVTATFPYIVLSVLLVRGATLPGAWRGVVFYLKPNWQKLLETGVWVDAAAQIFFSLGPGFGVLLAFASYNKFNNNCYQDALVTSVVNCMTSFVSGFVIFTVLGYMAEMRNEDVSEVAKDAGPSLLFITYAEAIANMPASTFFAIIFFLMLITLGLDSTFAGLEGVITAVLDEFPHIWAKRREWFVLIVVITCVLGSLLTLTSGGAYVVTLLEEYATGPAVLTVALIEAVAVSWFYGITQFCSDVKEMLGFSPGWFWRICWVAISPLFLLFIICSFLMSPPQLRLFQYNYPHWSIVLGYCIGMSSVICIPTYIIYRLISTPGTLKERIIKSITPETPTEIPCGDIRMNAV
Protocol Notes: Inhibition of serotonin transporter expressed in rat brain tissue assessed as inhibition of [3H]-5-hydroxytryptamine reuptake measured after 15 mins by scintillation counting analysis
Measured Quantity: IC50 (nM)

Solved cases (8 shown):
N#Cc1ccc2[nH]cc(CCCCN3CCN(c4ccc(-n5ccccc5=O)cc4)CC3)c2c1: 1.6
N#Cc1ccc2[nH]cc(CCCN3CCN(c4ccc(-n5ccc6ccccc6c5=O)cc4)CC3)c2c1: 10.2
N#Cc1ccc2[nH]cc(CCCCN3CCN(c4ccc(-n5ccc6ccccc6c5=O)cc4)CC3)c2c1: 4.31
Cc1ccn(-c2ccc(N3CCN(CCc4c[nH]c5ccc(C#N)cc45)CC3)cc2)c(=O)c1: 7.57
N#Cc1ccc2[nH]cc(CCCCN3CCN(c4ccc(-n5cc(F)ccc5=O)cc4)CC3)c2c1: 3.75
Cc1ccn(-c2ccc(N3CCN(CCCc4c[nH]c5ccc(C#N)cc45)CC3)cc2)c(=O)c1: 2.02
Cc1ccn(-c2ccc(N3CCN(CCCCc4c[nH]c5ccc(C#N)cc45)CC3)cc2)c(=O)c1: 2.03
N#Cc1ccc2[nH]cc(CCCN3CCN(c4ccc(-n5cc(F)ccc5=O)cc4)CC3)c2c1: 2.22

(A) N#Cc1ccc2[nH]cc(CCCCCN3CCN(c4ccc(-n5cc(F)ccc5=O)cc4)CC3)c2c1
(B) N#Cc1ccc2[nH]cc(CCCCCN3CCN(c4ccc(-n5ccccc5=O)cc4)CC3)c2c1
Prompt line: Exercise: compare A and B ; which one has the greater IC50? // respond with label for picked entry
Response line: A

* * *

Protocol Notes: Oral bioavailability in Sprague-Dawley rat at 5 mg/kg measured by LC-MS/MS analysis
Type: ADME, organism-based
Condition Description: in vivo
Measured Quantity: bioavailability (%)

(P) N#Cc1ccc2[nH]cc(CCCCN3CCN(c4ccc(-n5ccc6occc6c5=O)cc4)CC3)c2c1
(Q) N#Cc1ccc2[nH]cc(CCCCN3CCN(c4ccc(-n5ccc6ncccc6c5=O)cc4)CC3)c2c1
Prompt line: For the two items P and Q , which reports the higher bioavailability value? Bench note: the answer is the label of the chosen record.
Response line: Q

* * *

Protocol Notes: AUC (0 to t) in Sprague-Dawley rat at 2 mg/kg, iv measured by LC-MS/MS analysis
Assay type: ADME, organism-based
Set-up: dose 2 mg/kg
Condition Description: in vivo
Measured Quantity: AUC(0-t) (ng·h/mL)

(A) N#Cc1ccc2[nH]cc(CCCCN3CCN(c4ccc(-n5ccc6occc6c5=O)cc4)CC3)c2c1
(B) N#Cc1ccc2[nH]cc(CCCCN3CCN(c4ccc(-n5ccc6ncccc6c5=O)cc4)CC3)c2c1
Prompt line: Which item exceeds the other in AUC(0-t), A or B ? Record your answer as the label of the chosen record.
Response line: B
(B: 823 ng·h/mL, A: 559 ng·h/mL)

* * *

Protocol Notes: Half life in Sprague-Dawley rat at 5 mg/kg, po measured by LC-MS/MS analysis
Type: ADME, organism-based
Condition Description: in vivo
Measured Quantity: half-life (h)

(P) N#Cc1ccc2[nH]cc(CCCCN3CCN(c4ccc(-n5ccc6occc6c5=O)cc4)CC3)c2c1
(Q) N#Cc1ccc2[nH]cc(CCCCN3CCN(c4ccc(-n5ccc6ncccc6c5=O)cc4)CC3)c2c1
Prompt line: Of P and Q , which carries the smaller reported half-life figure? Pick one and reply with its label.
Response line: Q

* * *

# Lookup of reported pIC50 keyed by entry
Measurement Target: 5-hydroxytryptamine receptor 2C (Homo sapiens)
Sequence (P28335 whole entry): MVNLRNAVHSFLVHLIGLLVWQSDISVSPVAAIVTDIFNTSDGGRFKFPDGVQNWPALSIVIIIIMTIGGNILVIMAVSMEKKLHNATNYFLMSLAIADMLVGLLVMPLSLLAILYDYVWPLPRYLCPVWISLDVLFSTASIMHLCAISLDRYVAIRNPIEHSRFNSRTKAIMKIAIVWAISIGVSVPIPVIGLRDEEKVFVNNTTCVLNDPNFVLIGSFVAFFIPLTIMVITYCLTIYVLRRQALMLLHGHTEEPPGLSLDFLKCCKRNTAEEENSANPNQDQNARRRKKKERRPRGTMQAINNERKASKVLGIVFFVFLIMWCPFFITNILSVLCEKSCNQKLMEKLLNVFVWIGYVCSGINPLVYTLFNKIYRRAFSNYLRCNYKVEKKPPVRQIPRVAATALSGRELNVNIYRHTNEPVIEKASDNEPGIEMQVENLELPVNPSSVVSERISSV
pIC50: −log10 of the molar value.

N#Cc1ccc2[nH]cc(CCCCN3CCN(c4ccc(-n5ccc6ncccc6c5=O)cc4)CC3)c2c1: < 5.00

API: the following record is the query input.
// sample `N#Cc1ccc2[nH]cc(CCCCN3CCN(c4ccc(-n5ccc6occc6c5=O)cc4)CC3)c2c1` , its pIC50 was < 5.00
